These entries and their values trace back to patent US12077534B2.

Target: MAT2A homodimer (Homo sapiens)
Construct: inferred from Ni sepharose purification and imidazole elution
Sequence (P31153 whole entry): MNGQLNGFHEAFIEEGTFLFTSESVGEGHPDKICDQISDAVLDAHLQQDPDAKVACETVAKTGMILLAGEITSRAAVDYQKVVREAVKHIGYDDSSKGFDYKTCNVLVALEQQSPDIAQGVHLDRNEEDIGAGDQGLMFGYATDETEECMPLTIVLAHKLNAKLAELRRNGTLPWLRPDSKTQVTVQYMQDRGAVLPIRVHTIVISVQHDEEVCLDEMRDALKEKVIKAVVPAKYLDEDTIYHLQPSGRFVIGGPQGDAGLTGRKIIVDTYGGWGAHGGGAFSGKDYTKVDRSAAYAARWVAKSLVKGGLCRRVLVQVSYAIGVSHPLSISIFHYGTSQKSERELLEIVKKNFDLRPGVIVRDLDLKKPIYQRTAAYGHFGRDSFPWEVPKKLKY
Assay: MAT2A biochemical assay (phosphate release, PiColorLock Gold)
Settings: recombinant MAT2A homodimer, 60 min pre-incubation, 25° C.; read-out: Enzyme Inhibition
pIC50: −log10 of the molar value.
I'd be grateful if you could share measured pIC50 for these entries.

Exam item: Please give the measured pIC50 for this molecule: O=c1c(-c2ccc(OC(F)F)cc2)c2nc(OCC(F)F)ccc2nn1-c1ccc2ncccc2c1
Marked response: > 7.00

Exam item: # iterate: O=c1c(-c2ccc(OC(F)F)cc2)c2nc(OCC(F)F)ccc2nn1-c1ccc2nncn2c1
Marked response: > 7.00

Exam item: # iterate: Cn1nc2ccc(-n3nc4ccc(OCC(F)F)nc4c(-c4ccc(OC(F)F)cc4)c3=O)cc2n1
Marked response: > 7.00

Exam item: # iterate: CCOc1ccc2nn(-c3ccc4nn(C)cc4c3)c(=O)c(-c3ccc(OC(F)(F)F)cc3)c2n1
Marked response: > 7.00

Exam item: # iterate: Cn1cc2cc(-n3nc4c(C(F)F)cc(OCC(F)F)nc4c(-c4ccc(OC(F)F)cc4)c3=O)ccc2n1
Marked response: > 7.00

Exam item: # iterate: O=c1c(-c2ccc(OC(F)F)cc2)c2nc(OCC(F)F)ccc2nn1-c1ccc2ncncc2c1
Marked response: > 7.00

Exam item: # iterate: COc1c2cc(-n3nc4ccc(OCC(F)F)nc4c(-c4ccc(Cl)cc4)c3=O)ccc2nn1C
Marked response: > 7.00

Exam item: # iterate: Cn1cc2cc(-n3nc4ccc(OCC(F)F)nc4c(-c4ccc(Br)cc4)c3=O)ccc2n1
Marked response: > 7.00

Exam item: # iterate: CCCOc1ccc2nn(-c3ccc4nn(C)cc4c3)c(=O)c(-c3ccc(OC(F)F)cc3)c2n1
Marked response: > 7.00

Exam item: # iterate: Cc1c2cc(-n3nc4ccc(OCC(F)F)nc4c(-c4ccc(OC(F)F)cc4)c3=O)ccc2nn1C
Marked response: > 7.00

Exam item: # iterate: Cn1cc2cc(-n3nc4ccc(OCC(F)(F)F)nc4c(-c4ccc(Cl)cc4)c3=O)ccc2n1
Marked response: > 7.00

Exam item: # iterate: O=c1c(-c2ccc(OC(F)F)cc2)c2nc(OCC(F)F)ccc2nn1-c1ccc2ncsc2c1
Marked response: > 7.00

Exam item: # iterate: CCSc1ccc2nn(-c3ccc4nn(C)cc4c3)c(=O)c(-c3ccc(OC(F)F)cc3)c2n1
Marked response: > 7.00

Exam item: # iterate: O=c1c(-c2ccc(C3CC3)cc2)c2nc(OCC(F)F)ccc2nn1-c1ccc2ncsc2c1
Marked response: > 7.00

Exam item: # iterate: Cn1cc2cc(-n3nc4cc(F)c(NCC(F)(F)F)nc4c(-c4ccc(OC(F)F)cc4)c3=O)ccc2n1
Marked response: > 7.00

Exam item: # iterate: O=c1c(-c2ccc(OC(F)F)cc2)c2nc(OCC(F)F)ccc2nn1-c1ccncc1
Marked response: > 7.00

Exam item: # iterate: CC(C)Oc1ccc2nn(-c3ccc4ncsc4c3)c(=O)c(-c3ccc(Br)cc3)c2n1
Marked response: > 7.00

Exam item: # iterate: Cn1cc2cc(-n3nc4ccc(OCC(F)F)nc4c(-c4ccccc4)c3=O)ccc2n1
Marked response: > 7.00

Exam item: # iterate: [2H]C([2H])([2H])C([2H])([2H])Nc1ccc2nn(-c3ccc4nn(C)cc4c3)c(=O)c(-c3ccc(C)nc3)c2n1
Marked response: > 7.00

Exam item: # iterate: [2H]C([2H])([2H])c1ccc(-c2c(=O)n(-c3ccc4nn(C)cc4c3)nc3ccc(NCC)nc23)cn1
Marked response: > 7.00

Exam item: # iterate: CCNc1ccc2nn(-c3ccc4nn(C)cc4c3)c(=O)c(-c3ccc(C4CC4)nc3)c2n1
Marked response: > 7.00

Exam item: # iterate: Cn1cc2cc(-n3nc4ccc(N5CCCC5)nc4c(-c4ccc(OC(F)F)cc4)c3=O)ccc2n1
Marked response: > 7.00

Exam item: # iterate: Cc1ccc(-c2c(=O)n(-c3ccc4nn(C)cc4c3)nc3ccc(OCC4CC4)nc23)cn1
Marked response: > 7.00

Exam item: # iterate: O=c1c(-c2ccc(OC(F)F)cc2)c2nc(OCC(F)F)ccc2nn1-c1ccc2nccn2c1
Marked response: > 7.00

Exam item: # iterate: COc1ccc(-c2c(=O)n(-c3ccc4ncsc4c3)nc3ccc(OCC(F)F)nc23)cc1
Marked response: > 7.00

Exam item: # iterate: CC(C)COc1ccc2nn(-c3ccc4nn(C)cc4c3)c(=O)c(-c3ccc(OC(F)F)cc3)c2n1
Marked response: > 7.00

Exam item: # iterate: Cn1cc2cc(-n3nc4ccc(OC5CC5)nc4c(-c4ccc(Cl)cc4)c3=O)ccc2n1
Marked response: > 7.00

Exam item: # iterate: CCNc1ccc2nn(-c3ccc4nn(C)cc4c3)c(=O)c(-c3ccc(OC(F)F)nc3)c2n1
Marked response: > 7.00

Exam item: # iterate: CCOc1ccc2nn(-c3ccc4nn(C)cc4c3)c(=O)c(-c3ccc(Cl)cc3)c2n1
Marked response: > 7.00

Exam item: # iterate: Cc1c2cc(-n3nc4ccc(OCC(F)F)nc4c(-c4ccc(Cl)cc4)c3=O)ccc2nn1C
Marked response: > 7.00

Exam item: # iterate: Cn1cc2cc(-n3nc4ccc(OCC5CC5)nc4c(-c4ccc(C5CC5)nc4)c3=O)ccc2n1
Marked response: > 7.00
